- tgt: PI3-kinase p110-delta/p85-alpha (Homo sapiens, UniProt O00329)
- Sequence (P27986 whole entry): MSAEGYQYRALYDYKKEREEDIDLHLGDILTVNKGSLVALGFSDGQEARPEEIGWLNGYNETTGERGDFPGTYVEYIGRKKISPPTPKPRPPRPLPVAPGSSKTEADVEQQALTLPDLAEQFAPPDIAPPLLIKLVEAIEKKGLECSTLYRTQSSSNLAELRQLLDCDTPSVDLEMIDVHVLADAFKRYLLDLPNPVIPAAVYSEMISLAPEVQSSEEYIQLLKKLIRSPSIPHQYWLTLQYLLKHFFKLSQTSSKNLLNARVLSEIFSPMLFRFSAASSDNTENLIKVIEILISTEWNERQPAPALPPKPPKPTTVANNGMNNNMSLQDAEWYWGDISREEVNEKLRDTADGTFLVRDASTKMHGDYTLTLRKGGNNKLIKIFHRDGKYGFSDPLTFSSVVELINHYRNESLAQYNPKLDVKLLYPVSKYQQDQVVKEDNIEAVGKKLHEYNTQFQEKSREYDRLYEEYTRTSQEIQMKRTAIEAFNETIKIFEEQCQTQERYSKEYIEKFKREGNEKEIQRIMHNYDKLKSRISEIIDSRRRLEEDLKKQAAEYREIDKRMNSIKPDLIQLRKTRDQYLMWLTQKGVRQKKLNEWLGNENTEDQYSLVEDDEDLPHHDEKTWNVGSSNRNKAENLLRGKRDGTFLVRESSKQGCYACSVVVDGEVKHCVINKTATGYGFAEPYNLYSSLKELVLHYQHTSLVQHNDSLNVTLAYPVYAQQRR
- Sequence (O00329 whole entry): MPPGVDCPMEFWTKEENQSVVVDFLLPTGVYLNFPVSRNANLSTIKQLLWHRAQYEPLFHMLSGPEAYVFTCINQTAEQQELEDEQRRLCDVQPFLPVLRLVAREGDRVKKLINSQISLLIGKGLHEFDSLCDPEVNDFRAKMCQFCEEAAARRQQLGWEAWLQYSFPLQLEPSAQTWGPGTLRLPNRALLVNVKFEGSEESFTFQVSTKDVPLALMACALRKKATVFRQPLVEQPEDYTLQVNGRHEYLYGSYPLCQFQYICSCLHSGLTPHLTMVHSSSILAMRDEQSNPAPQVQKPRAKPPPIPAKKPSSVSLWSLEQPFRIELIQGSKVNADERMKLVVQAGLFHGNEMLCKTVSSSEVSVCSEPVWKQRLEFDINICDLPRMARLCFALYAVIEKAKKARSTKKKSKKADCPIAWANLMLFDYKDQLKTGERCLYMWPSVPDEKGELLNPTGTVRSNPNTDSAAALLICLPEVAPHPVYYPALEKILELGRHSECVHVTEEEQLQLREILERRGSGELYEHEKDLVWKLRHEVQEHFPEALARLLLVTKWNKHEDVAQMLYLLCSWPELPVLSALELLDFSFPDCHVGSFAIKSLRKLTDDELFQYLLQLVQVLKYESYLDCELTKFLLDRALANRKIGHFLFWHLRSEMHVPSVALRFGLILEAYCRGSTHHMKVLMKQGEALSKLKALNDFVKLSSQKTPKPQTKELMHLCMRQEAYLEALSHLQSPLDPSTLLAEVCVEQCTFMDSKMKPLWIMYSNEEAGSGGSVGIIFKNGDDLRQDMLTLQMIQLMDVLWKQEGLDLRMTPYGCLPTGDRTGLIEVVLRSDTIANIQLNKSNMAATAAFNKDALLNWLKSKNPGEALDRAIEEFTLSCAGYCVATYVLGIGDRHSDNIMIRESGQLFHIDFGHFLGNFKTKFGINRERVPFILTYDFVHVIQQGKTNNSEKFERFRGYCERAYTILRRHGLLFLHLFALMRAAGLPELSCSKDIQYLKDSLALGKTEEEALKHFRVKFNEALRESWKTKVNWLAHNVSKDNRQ
- assay summary: Inhibition of N-terminal His6-tagged recombinant full-length human p110delta/untagged recombinant full length p85alpha expressed in baculovirus infected Sf21 cells using phosphatidylinositol as substrate in presence of gamma-32P-ATP after 5 mins by thin layer chromatographic method
pIC50: −log10 of the molar value.
Reported pIC50 is given for each of the following compounds.

>  <compound>
Cc1cccc2cc([C@H](C)Nc3nc(N)ncc3C(F)(F)F)n(-c3ccccc3)c(=O)c12

>  <pIC50>
> 7.00

$$$$
>  <compound>
Cc1ccccc1-n1c(Cn2nc(C#C[C@@H](C)O)c3c(N)ncnc32)cc2cccc(C)c2c1=O

>  <pIC50>
> 7.00

$$$$
>  <compound>
Cc1cccc(C)c1-n1c(CNc2ncnc3[nH]cnc23)cc2cccc(C)c2c1=O

>  <pIC50>
> 7.00

$$$$
>  <compound>
Cc1cccc2cc(Cn3nc(C#C[C@@H](C)O)c4c(N)ncnc43)n(C3CCCC3)c(=O)c12

>  <pIC50>
> 7.00

$$$$
>  <compound>
Cc1cccc2cc(Cn3nc(-c4cc(O)cc(F)c4)c4c(N)ncnc43)n(C(C)C)c(=O)c12

>  <pIC50>
> 7.00

$$$$
>  <compound>
Cc1cccc2cc(Cn3nc(-c4cccc(O)c4)c4c(N)ncnc43)n(C3CC3)c(=O)c12

>  <pIC50>
> 7.00

$$$$
>  <compound>
CC(=O)Nc1nc2ccc(-c3nn(Cc4cc5cccc(C)c5c(=O)n4C)c4ncnc(N)c34)cc2s1

>  <pIC50>
> 7.00

$$$$
>  <compound>
CCC(Nc1ncnc2[nH]cnc12)c1cc2cccc(C)c2c(=O)n1-c1cc(F)cc(F)c1 (centres undefined)

>  <pIC50>
> 7.00

$$$$
>  <compound>
Cc1ccccc1-n1c(Cn2nc(-c3cnn(C)c3)c3c(N)ncnc32)cc2cccc(C)c2c1=O

>  <pIC50>
> 5.00

$$$$

====

Property: pIC50; scope: individual compounds
- tgt: PI3-kinase p110-delta/p85-alpha (Homo sapiens, UniProt O00329)
- assay summary: Inhibition of N-terminal His6-tagged recombinant full-length human p110delta/untagged recombinant full length p85alpha expressed in baculovirus infected Sf21 cells using phosphatidylinositol as substrate in presence of gamma-32P-ATP after 5 mins by thin layer chromatographic method
pIC50: −log10 of the molar value.

>  <compound>
Cc1ccccc1-n1c(C(C)Nc2ncnc3[nH]cnc23)cc2cccc(C)c2c1=O (stereo not drawn)

>  <pIC50>
> 7.00

$$$$
>  <compound>
COc1ccccc1-n1c(Cn2nc(C#C[C@@H](C)O)c3c(N)ncnc32)cc2cccc(C)c2c1=O

>  <pIC50>
> 7.00

$$$$
>  <compound>
Cc1cccc2cc(Cn3nc(CF)c4c(N)ncnc43)n(-c3ccccc3)c(=O)c12

>  <pIC50>
> 7.00

$$$$
>  <compound>
Cc1cccnc1-n1c(Cn2nc(Cl)c3c(N)ncnc32)cc2cccc(C)c2c1=O

>  <pIC50>
> 6.00

$$$$
>  <compound>
Cc1ccccc1-n1c(Cn2nc(C(F)F)c3c(N)ncnc32)cc2cccc(C)c2c1=O

>  <pIC50>
> 7.00

$$$$
>  <compound>
Cc1ccccc1-n1c(Cn2nc(I)c3c(N)ncnc32)cc2cccc(C)c2c1=O

>  <pIC50>
> 7.00

$$$$
>  <compound>
CCC(Nc1ncnc2[nH]cnc12)c1cc2cccc(C)c2c(=O)n1-c1ccccc1 (stereo not drawn)

>  <pIC50>
> 7.00

$$$$
>  <compound>
CCc1ccccc1-n1c(Cn2nc(-c3cccc(O)c3)c3c(N)ncnc32)cc2cccc(C)c2c1=O

>  <pIC50>
> 7.00

$$$$
>  <compound>
Cc1cccc2cc(Cn3nc(/C=C4/SC(=O)NC4=O)c4c(N)ncnc43)n(-c3ccccc3F)c(=O)c12

>  <pIC50>
> 7.00

$$$$
>  <compound>
Cc1cccc2cc([C@H](C)Nc3ncnc4[nH]cc(C#N)c34)n(C3CC3)c(=O)c12

>  <pIC50>
> 7.00

$$$$
>  <compound>
Cc1ccccc1-n1c(Cn2nc(-c3cn[nH]c3)c3c(N)ncnc32)cc2cccc(C)c2c1=O

>  <pIC50>
> 7.00

$$$$
>  <compound>
COc1cc(F)cc(-c2nn(Cc3cc4cccc(C)c4c(=O)n3-c3ccccc3C)c3ncnc(N)c23)c1

>  <pIC50>
> 6.00

$$$$
>  <compound>
Cc1ccccc1-n1c(Cn2nc(-c3ccc(Cl)c(O)c3)c3c(N)ncnc32)cc2ccccc2c1=O

>  <pIC50>
> 7.00

$$$$
>  <compound>
Cc1cccc2cc(Cn3nc(I)c4c(N)ncnc43)n(C(C)C)c(=O)c12

>  <pIC50>
5.00 to 7.00

$$$$
>  <compound>
Cc1cccc2cc(Cn3nc(-c4cn[nH]c4)c4c(N)ncnc43)n(-c3ccccc3C(F)(F)F)c(=O)c12

>  <pIC50>
> 7.00

$$$$
>  <compound>
Cc1ccccc1-n1c(Cn2nc(CCC(N)=O)c3c(N)ncnc32)cc2cccc(C)c2c1=O

>  <pIC50>
> 6.00

$$$$
>  <compound>
COc1ccccc1-n1c(Cn2nc(-c3cc(O)cc(F)c3)c3c(N)ncnc32)cc2cccc(C)c2c1=O

>  <pIC50>
> 7.00

$$$$
>  <compound>
Cc1cccc2cc(C(C)Nc3ncnc4[nH]cnc34)n(CCN3CCOCC3)c(=O)c12 (stereo not drawn)

>  <pIC50>
> 7.00

$$$$
